Tested on: MALME-3M melanoma
Assay: NCI tumour cell line growth inhibition, 48 h
Where a SMILES comes first, the peptide text is derived from it. The star is where a group is joined. Cbz = O=C(OCc1ccccc1)*; Boc = CC(C)(C)OC(=O)*; OBn = c1ccc(CO*)cc1
assay metric: TGI

>>> assay_result("COc1ccc(N(C(=O)NCCO)c2ccccc2)cc1")
"> 100 µM"
>>> assay_result("CCOC(=O)CNC(=O)C(C)NC(=O)C(NC(=O)OCc1ccccc1)C(C)C (stereo not drawn) (Cbz-Val-Ala-Gly-OEt; configuration not given here)")
"> 100 µM"
>>> assay_result("CCN(Cc1cccc(F)c1F)c1ccc(CO)c(Cl)c1")
"34.2 µM"
>>> assay_result("NC(=O)C1CCCN1C(=O)N(CCCl)N=O (stereo not drawn)")
"> 100 µM"
>>> assay_result("CN(C)c1ccc(C(=C2C=CC(=[N+](C)C)C=C2)c2ccccc2Cl)cc1")
"1.05 µM"
>>> assay_result("CC(C)CC(NC(=O)C(Cc1ccccc1)NC(=O)C(Cc1ccccc1)NC(=O)OC(C)(C)C)C(=O)OCc1ccccc1 (stereo not drawn) (Boc-Phe-Phe-Leu-OBn; configuration not given here)")
"> 100 µM"
>>> assay_result("CCOC(=O)c1nc2cc(C(F)(F)F)ccc2[n+]([O-])c1C")
"> 100 µM"
>>> assay_result("CC(=O)C1=C(C)N(c2ccccc2)C2(O)C=CC(=O)C3=C(O)c4ccccc4C(=O)C312 (stereo not drawn)")
"2.64 µM"
>>> assay_result("Nc1[nH]c(=S)c2c(N)n[nH]c2c1C(=O)Nc1ccc(Cl)cc1")
"> 100 µM"
>>> assay_result("O=S(=O)(NCCO)c1cc[c]([Sb](=[O])([OH])[OH])cc1")
"> 100 µM"
>>> assay_result("CN(C)Cc1cc(C(=O)/C=C/c2ccc(F)cc2)cc(CN(C)C)c1O")
"36.5 µM"
>>> assay_result("Cc1cc(O)cc(C)c1/C=C/c1cncc(C(=O)OC(C)(C)C)c1")
"> 25 µM"
>>> assay_result("C/C(=C1\\C(=O)C(c2ccccc2)N(c2ccccc2)C1=O)c1ccc(Cl)cc1 (stereo not drawn)")
"37.4 µM"
>>> assay_result("Cc1cc(NS(=O)(=O)c2ccc(Nc3c4ccccc4nc4c(C(=O)Nc5ccc(S(=O)(=O)N=C(N)N)cc5)ccc(Cl)c34)cc2)no1")
"> 100 µM"
>>> assay_result("Nc1ccc(OCCCc2c(-c3ccccc3)nc(N)[nH]c2=O)cc1")
"> 100 µM"
>>> assay_result("Cc1ncc(-c2ccnc(Nc3ccc(S(C)(=O)=O)cc3)n2)n1C(C)C")
"6.04 µM"
>>> assay_result("COc1ccccc1/C=C/c1nc2ccccc2o1")
"> 10 µM"
>>> assay_result("CC(=O)N(C(C)=O)n1nc2c(n1)C(=O)c1ccccc1C2=O")
"> 100 µM"
>>> assay_result("CCCCCSC1C2C(=O)C(Br)=CC13CCNc1c(O)c4c5c(c13)=[N+]2CCC=5C=N4 (stereo not drawn)")
"1.37 µM"
>>> assay_result("CCCCc1c2c(nc3c1CC/C(=C\\c1ccc([N+](=O)[O-])cc1)C3=O)CCCC2")
"3.84 µM"
>>> assay_result("COc1ccc2c(c1)CCN1C3=C(CCC3)C(=O)C[C@@H]21")
"> 100 µM"
>>> assay_result("COc1ccc2nccc(/C=C/c3ccnc4ccc(OC)cc34)c2c1")
"48.1 µM"
>>> assay_result("O=[N+]([O-])c1ccc(O)c(C=NCC2CCCN3CCCCC23)c1 (stereo not drawn)")
"> 100 µM"
>>> assay_result("CCCCN1C(=O)CS/C1=N/Nc1nc2c([nH]1)c(=O)n(C)c(=O)n2C")
"> 100 µM"
>>> assay_result("NC(=O)C1N=NSC1NC(=O)c1ccc([N+](=O)[O-])cc1 (stereo not drawn)")
"> 100 µM"
>>> assay_result("O=C(CC1C(=O)Nc2ccccc2S1(=O)=O)Nc1cccc(Cl)c1 (stereo not drawn)")
"63.7 µM"
>>> assay_result("COc1cc(C2C3=C(COC3=O)Nc3cc4c(cc32)OCO4)cc2c1OCO2 (stereo not drawn)")
"> 100 µM"
>>> assay_result("COc1cc2cc3c4c(cc(OC)c(OC)c4c2cc1OC)CCN3C(=O)CCC(=O)O")
"> 100 µM"
>>> assay_result("CN1C(=O)C(=CN(C)c2ccccc2)C(=O)N(C)C1=O")
"> 100 µM"
>>> assay_result("Oc1c(CNCCNCc2cc(Cl)cc(Cc3ccccc3)c2O)cc(Cl)cc1Cc1ccccc1")
"7.6 µM"
>>> assay_result("CC/C(CC(=O)CCC(=O)Nc1ccc(C)c(C)c1)=N\\NC(=O)C(N)=O")
"> 100 µM"
>>> assay_result("CC(C)[C@](O)(C(=O)OCC1=CCN2CC[C@@H](O)[C@@H]12)[C@H](C)O")
"> 375 µM"
>>> assay_result("COc1ccc(/C=C2\\CN(C)CC3C2=NN(c2ccccc2)C3c2ccc(OC)cc2)cc1 (stereo not drawn)")
"> 100 µM"
